Would you mind telling me the reported IC50 of each entry?
Molecular target: purified PBP3 of P. aeruginosa (PaPBP3) (Pseudomonas aeruginosa, UniProt G3XD46)
Construct: (residues 53 to 579) from P. aeruginosa ATCC 27853 (PaPBP3); His6 (C); made in house; host or cells: E. coli BL21 DE3
Sequence (G3XD46 53-579): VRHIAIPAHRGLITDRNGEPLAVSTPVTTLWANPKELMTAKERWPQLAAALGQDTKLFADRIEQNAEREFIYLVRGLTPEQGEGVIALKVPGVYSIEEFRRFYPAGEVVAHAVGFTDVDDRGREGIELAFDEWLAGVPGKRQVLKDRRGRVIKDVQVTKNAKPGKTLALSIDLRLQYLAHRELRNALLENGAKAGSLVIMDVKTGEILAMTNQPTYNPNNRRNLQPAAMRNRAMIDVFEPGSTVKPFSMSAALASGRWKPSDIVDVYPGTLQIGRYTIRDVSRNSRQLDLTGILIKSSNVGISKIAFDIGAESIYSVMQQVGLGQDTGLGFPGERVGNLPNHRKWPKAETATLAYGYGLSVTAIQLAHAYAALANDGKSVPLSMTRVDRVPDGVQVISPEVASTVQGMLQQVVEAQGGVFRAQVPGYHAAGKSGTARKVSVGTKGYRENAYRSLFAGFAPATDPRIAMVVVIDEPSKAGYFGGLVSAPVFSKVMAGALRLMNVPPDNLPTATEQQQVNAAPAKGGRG
Assay: biochemical
Format: binding
Conditions: 150 ng PaPBP3, 500 nM Bocillin FL, n = 3; read-out: IC50 PaPBP3 purified
Report only the number, with the unit nM understood.

For N[C@@H](C(=O)N[C@@H]1C(=O)N2C(C(=O)O)=C(Cl)CC[C@H]12)c1ccccc1 [LOR, loracarbef, reference compound] , what is its reported IC50?
8600

Which IC50 value is on record for O=C(CN(CCCCNC(=O)c1cccc(O)c1O)C(=O)c1cccc(O)c1O)NC(C(=O)NC1C(=O)N2C(C(=O)O)=C(Cl)CCC12)c1ccccc1 (stereo not drawn) [BLOR, bis-catechol (azotochelin)-loracarbef] ?
380

Please give the measured IC50 for this compound: CC1(C)SC2C(NC(=O)C(NC(=O)CN(CCCCNC(=O)c3cccc(O)c3O)C(=O)c3cccc(O)c3O)c3ccccc3)C(=O)N2C1C(=O)O (stereo not drawn) [BAMP, bis-catechol (azotochelin)-ampicillin]
76

---

Target: PBP1a/1b
Assay: Membrane PBP binding assay, competition with Bocillin FL
Design: species or system E. coli MC4100
Details: E. coli MC4100 membranes, 12.5 μM Bocillin FL
Binarize IC50 at 7 µM; below is YES, at or above is NO.

Given the entry O=C(CN(CCCCNC(=O)c1cccc(O)c1O)C(=O)c1cccc(O)c1O)NC(C(=O)NC1C(=O)N2C(C(=O)O)=C(Cl)CCC12)c1ccccc1 (stereo not drawn) [BLOR, bis-catechol (azotochelin)-loracarbef] , would its reported IC50 be below 7 µM?
YES

Dear reviewer, please state whether CC1(C)S[C@@H]2[C@H](NC(=O)[C@H](N)c3ccccc3)C(=O)N2[C@H]1C(=O)O [AMP, ampicillin, reference compound] has IC50 strictly beneath 7 µM.
NO

Answer whether the molecule O=C(CCC(=O)N(CCCCNC(=O)c1cccc(O)c1O)CCCNC(=O)c1cccc(O)c1O)NCCCCCN(O)C(=O)CCCC(=O)NC(C(=O)NC1C(=O)N2C(C(=O)O)=C(Cl)CSC12)c1ccccc1 (stereo not drawn) [MCEF] has IC50 strictly less than 7 µM
YES

API: query returns whether the molecule falls strictly under 7 µM in IC50. Query: N[C@@H](C(=O)N[C@@H]1C(=O)N2C(C(=O)O)=C(Cl)CS[C@H]12)c1ccccc1 [CEF, cefaclor, reference compound]
NO

Input CC1(C)SC2C(NC(=O)C(NC(=O)CN(CCCCNC(=O)c3cccc(O)c3O)C(=O)c3cccc(O)c3O)c3ccccc3)C(=O)N2C1C(=O)O (stereo not drawn) [BAMP, bis-catechol (azotochelin)-ampicillin] ; condition: IC50 strictly below 7 µM. Does it hold?
YES

Consider N[C@@H](C(=O)N[C@@H]1C(=O)N2C(C(=O)O)=C(Cl)CC[C@H]12)c1ccccc1 [LOR, loracarbef, reference compound] . Does its IC50 lie strictly below 7 µM?
NO

---

Biological target: AmpC (PDC-5) (Pseudomonas aeruginosa, UniProt P24735, R79Q/T105A)
Sequence (P24735 27-397 R79Q/T105A): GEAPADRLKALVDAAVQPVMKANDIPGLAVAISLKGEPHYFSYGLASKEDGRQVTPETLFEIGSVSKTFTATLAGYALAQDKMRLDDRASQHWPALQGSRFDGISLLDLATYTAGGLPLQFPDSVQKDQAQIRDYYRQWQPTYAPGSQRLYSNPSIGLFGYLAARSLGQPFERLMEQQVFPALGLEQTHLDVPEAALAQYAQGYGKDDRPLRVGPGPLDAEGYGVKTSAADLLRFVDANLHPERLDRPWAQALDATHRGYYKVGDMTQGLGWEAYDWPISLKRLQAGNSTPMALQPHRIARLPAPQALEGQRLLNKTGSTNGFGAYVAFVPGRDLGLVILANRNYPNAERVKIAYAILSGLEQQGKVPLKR
Experiment: biochemical
observable: Ki (µM)
Please give a number only; it is taken to be in µM.

State the recorded Ki for this entry: CC1(C)S[C@@H]2[C@H](NC(=O)[C@H](N)c3ccccc3)C(=O)N2[C@H]1C(=O)O [AMP, ampicillin, reference compound]
15

Report Ki for CC1(C)SC2C(NC(=O)C(NC(=O)CN(CCCCNC(=O)c3cccc(O)c3O)C(=O)c3cccc(O)c3O)c3ccccc3)C(=O)N2C1C(=O)O (centres unmarked) [BAMP, bis-catechol (azotochelin)-ampicillin] please.
19

---

Target: PBP2 (Klebsiella pneumoniae, UniProt A6T696)
Assay: Membrane PBP binding assay, competition with Bocillin FL
Set-up: species or system K. pneumoniae ATCC 13883
observable: IC50

Param item = N[C@@H](C(=O)N[C@@H]1C(=O)N2C(C(=O)O)=C(Cl)CS[C@H]12)c1ccccc1 [CEF, cefaclor, reference compound] ; retrieve measured IC50.
> 50 µM

---

Target: PBP3 (Pseudomonas aeruginosa)
Construct: using bacterial membranes as the source of PBPs; endogenous in cells; host or cells: P. aeruginosa ATCC 27853 membrane preparation
Assay: Membrane PBP binding assay, competition with Bocillin FL
observable: pIC50
Value format note: pIC50 is -log10 of concentration (mol/L); just state the number.

Using the record for CC1(C)S[C@@H]2[C@H](NC(=O)[C@H](N)c3ccccc3)C(=O)N2[C@H]1C(=O)O [AMP, ampicillin, reference compound] , report its pIC50.
6.62

---

Molecular target: PBP3 (Klebsiella pneumoniae)
observable: pIC50
# pIC50 = -log10(concentration in molar units)

Notebook entry, PBP3 (Klebsiella pneumoniae) assay: pIC50 of N[C@@H](C(=O)N[C@@H]1C(=O)N2C(C(=O)O)=C(Cl)CC[C@H]12)c1ccccc1 [LOR, loracarbef, reference compound] = ?
5.39

---

Test system: E. coli ΔfepA
Experiment: MIC, Keio mutant
Assay type: cell-based, Escherichia coli
Details: Escherichia coli, ID-MHBCA
For each of the compounds below, state its MIC.
Kindly provide the numeric value in µM only, without the unit symbol.

Query: MIC; subject: O=C(CN(CCCCNC(=O)c1cccc(O)c1O)C(=O)c1cccc(O)c1O)NC(C(=O)NC1C(=O)N2C(C(=O)O)=C(Cl)CCC12)c1ccccc1 (stereo not shown)
0.012

Consider the compound shown here: N[C@@H](C(=O)N[C@@H]1C(=O)N2C(C(=O)O)=C(Cl)CS[C@H]12)c1ccccc1 [CEF, cefaclor, reference compound] What is its recorded MIC?
25

Reported MIC, compound CC1(C)SC2C(NC(=O)C(NC(=O)CN(CCCCNC(=O)c3cccc(O)c3O)C(=O)c3cccc(O)c3O)c3ccccc3)C(=O)N2C1C(=O)O (stereo not shown) : ____
0.024

---

Assignment: determine reported MIC for the given compounds.
Tested on: E. coli ΔcirA
Experiment: MIC, Keio mutant
Assay type: cell-based, Escherichia coli
Conditions: Escherichia coli, ID-MHBCA

Consider the compound CC1(C)SC2C(NC(=O)C(NC(=O)CN(CCCCNC(=O)c3cccc(O)c3O)C(=O)c3cccc(O)c3O)c3ccccc3)C(=O)N2C1C(=O)O (centres unmarked) [BAMP, bis-catechol (azotochelin)-ampicillin] and give its measured MIC.
0.2 to 13 µM

I would be grateful if you could share the reported MIC for CC1(C)S[C@@H]2[C@H](NC(=O)[C@H](N)c3ccccc3)C(=O)N2[C@H]1C(=O)O [AMP, ampicillin, reference compound] .
25 µM

Entry under review: O=C(CN(CCCCNC(=O)c1cccc(O)c1O)C(=O)c1cccc(O)c1O)NC(C(=O)NC1C(=O)N2C(C(=O)O)=C(Cl)CCC12)c1ccccc1 (centres unmarked) [BLOR, bis-catechol (azotochelin)-loracarbef] . Reported MIC?
0.2 µM

Field request: MIC | item: N[C@@H](C(=O)N[C@@H]1C(=O)N2C(C(=O)O)=C(Cl)CS[C@H]12)c1ccccc1 [CEF, cefaclor, reference compound]
25 µM

Looking for the measured MIC of O=C(CCC(=O)N(CCCCNC(=O)c1cccc(O)c1O)CCCNC(=O)c1cccc(O)c1O)NCCCCCN(O)C(=O)CCCC(=O)NC(C(=O)NC1C(=O)N2C(C(=O)O)=C(Cl)CSC12)c1ccccc1 (centres unmarked) [MCEF] , can you help?
> 200 µM

---

Molecular target: PBP5 (Pseudomonas aeruginosa, UniProt G3XD74)
Sequence (G3XD74 entry or part of it): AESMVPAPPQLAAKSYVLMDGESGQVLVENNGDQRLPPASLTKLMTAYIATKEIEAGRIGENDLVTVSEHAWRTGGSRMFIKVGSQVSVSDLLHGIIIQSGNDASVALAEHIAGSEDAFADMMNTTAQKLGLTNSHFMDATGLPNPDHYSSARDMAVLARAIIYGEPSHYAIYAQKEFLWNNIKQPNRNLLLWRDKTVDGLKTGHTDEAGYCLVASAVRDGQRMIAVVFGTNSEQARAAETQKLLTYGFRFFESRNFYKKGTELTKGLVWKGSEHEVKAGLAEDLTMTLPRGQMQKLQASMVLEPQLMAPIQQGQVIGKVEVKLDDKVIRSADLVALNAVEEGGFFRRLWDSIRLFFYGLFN
Assay: Membrane PBP binding assay, competition with Bocillin FL
Settings: P. aeruginosa ATCC 27853 membranes
observable: IC50

Provide value of IC50 for this record tested with PBP5 (Pseudomonas aeruginosa, UniProt G3XD74): N[C@@H](C(=O)N[C@@H]1C(=O)N2C(C(=O)O)=C(Cl)CC[C@H]12)c1ccccc1 [LOR, loracarbef, reference compound]
> 50 µM

---

System: P. aeruginosa ATCC 27853
Test: MIC, broth microdilution (CLSI)
Assay type: cell-based, Pseudomonas aeruginosa
Settings: Pseudomonas aeruginosa, ATCC27853, MHBCA (+), no inhibitor; read-out: MIC
What MIC was measured for each of the following?
State just the number; it will be interpreted in µM.

Item CC1(C)SC2C(NC(=O)C(NC(=O)CN(CCCCNC(=O)c3cccc(O)c3O)C(=O)c3cccc(O)c3O)c3ccccc3)C(=O)N2C1C(=O)O (centres unmarked) has what recorded MIC?
1.6

Name the reported MIC value associated with the compound O=C(CN(CCCCNC(=O)c1cccc(O)c1O)C(=O)c1cccc(O)c1O)NC(C(=O)NC1C(=O)N2C(C(=O)O)=C(Cl)CCC12)c1ccccc1 (centres unmarked)
13

---

Target: UniProt:A6T693
Sequence (A6T693 entry or part of it): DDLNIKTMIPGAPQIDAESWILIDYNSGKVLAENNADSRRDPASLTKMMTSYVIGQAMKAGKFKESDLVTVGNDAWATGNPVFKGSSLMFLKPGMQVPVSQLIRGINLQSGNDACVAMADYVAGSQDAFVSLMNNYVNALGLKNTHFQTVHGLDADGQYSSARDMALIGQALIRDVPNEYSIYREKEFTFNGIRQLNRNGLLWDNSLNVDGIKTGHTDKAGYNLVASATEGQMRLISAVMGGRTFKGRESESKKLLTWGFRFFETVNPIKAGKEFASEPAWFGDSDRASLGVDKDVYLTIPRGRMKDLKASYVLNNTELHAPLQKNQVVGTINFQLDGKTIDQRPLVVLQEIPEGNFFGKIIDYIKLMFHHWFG
observable: IC50

Recorded IC50 of N[C@@H](C(=O)N[C@@H]1C(=O)N2C(C(=O)O)=C(Cl)CC[C@H]12)c1ccccc1 [LOR, loracarbef, reference compound] , please.
> 50 µM
